study-target: human glucagon receptor (human) (UniProt P47871)
Sequence (P47871 26-477): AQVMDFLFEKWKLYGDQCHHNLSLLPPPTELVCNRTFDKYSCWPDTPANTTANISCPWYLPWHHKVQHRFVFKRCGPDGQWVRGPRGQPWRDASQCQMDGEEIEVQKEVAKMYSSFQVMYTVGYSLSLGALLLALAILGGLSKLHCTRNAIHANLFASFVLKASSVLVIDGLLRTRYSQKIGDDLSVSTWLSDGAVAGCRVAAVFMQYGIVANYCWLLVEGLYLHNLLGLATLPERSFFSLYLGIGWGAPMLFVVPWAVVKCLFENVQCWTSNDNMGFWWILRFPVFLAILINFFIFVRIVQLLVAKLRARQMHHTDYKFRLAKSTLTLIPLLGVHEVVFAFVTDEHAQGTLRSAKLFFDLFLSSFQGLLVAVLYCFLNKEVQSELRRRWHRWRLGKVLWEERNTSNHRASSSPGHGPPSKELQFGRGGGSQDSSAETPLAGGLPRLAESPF
method-summary: cell-based or functional assay
Starred links: 1 amine or outer side, 2 acyl side, 3 side chain; linkers in the order of their positions; H or OH if unused. Non-standard residues stand in square brackets, D forms with d. Groups on a side chain read outwards from the residue. No end group written: not given here. *: point of attachment. C20 diacid = O=C(O)CCCCCCCCCCCCCCCCCCC(=O)*; αMePhe(2-F) = C[C@](N)(Cc1ccccc1F)C(=O)O; γGlu = O=C(O)[C@H](CCC(=O)[*:2])N[*:1]; NMeY = CN[C@@H](Cc1ccc(O)cc1)C(=O)O; αMeF = C[C@](N)(Cc1ccccc1)C(=O)O; AEEA = NCCOCCOCC(=O)O; Aib = CC(C)(N)C(=O)O
test-readout: log10 cAMP Rel EC50 (1% HSA) (log10 of the value in nM)

binder	log10 cAMP Rel EC50 (1% HSA)
YXQGTXTSDXXIXLDXKAAXEFIEXLLEGGPSSGAPPPSGS (synthetic construct; SITE 2: note = 2-Aminoisobutyric Acid; SITE 6: note = alpha-methyl-2-fluoro-L-phenylalanine; SITE 10: note = 3-(4-Pyridyl)-L-alanine; SITE 11: note = alpha-methyl-L-serine; SITE 13: note = alpha-methyl-leucine; SITE 16: note = L-ornithine; SITE 17: note = Lysine is chemically mo) [Example 672]	2.21
[NMeY][Aib]QGT[αMeF]TSDYSSLLDKIAAKAFIEYLLEGGPSSGEPPPSEG-NH2 (not fully specified (residue 20)) [Example 297]	3.37
Y[Aib]QGT[αMePhe(2-F)]TSDYSKLLDKQAQK([AEEA-γGlu-C20 diacid])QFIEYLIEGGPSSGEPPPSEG-NH2 [Example 309]	3.59
YXQGTXTSDXXIXLDXKAQXXFIEXLAEGGPSSGEPPPSGTE (synthetic construct; SITE 2: note = 2-Aminoisobutyric Acid; SITE 6: note = alpha-methyl-2-fluoro-L-phenylalanine; SITE 10: note = 3-(4-Pyridyl)-L-alanine; SITE 11: note = alpha-methyl-L-serine; SITE 13: note = alpha-methyl-leucine; SITE 16: note = L-ornithine; SITE 17: note = Lysine is chemically mo) [Example 544]	2.23
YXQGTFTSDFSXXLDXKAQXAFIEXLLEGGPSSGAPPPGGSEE (Aib, Orn, αMeL, αMeY; acylated Lys; C-terminal amide; synthetic construct; SITE 2: note = 2-Aminoisobutyric Acid; SITE 12: note = L-ornithine; SITE 13: note = alpha-methyl-leucine; SITE 16: note = L-ornithine; SITE 17: note = Lysine is chemically modified through conjugation of the epsilon-amino group of the Lysine side chain with (gamma-Glu)2-CO-(CH2)) [Example 1049]	3.11
YXQGTFTSDFSXXLDKKAQXAFIEYLIEXSPSSGAPPPSGS (synthetic construct; SITE 2: note = 2-Aminoisobutyric Acid; SITE 12: note = L-ornithine; SITE 13: note = alpha-methyl-leucine; SITE 17: note = Lysine is chemically modified through conjugation of the epsilon-amino group of the Lysine side chain with (2-[2-(2-Amino-ethoxy)-ethoxy]-acetyl)-(gamma-Glu)) [Example 804]	3.36

Where do the numbers come from? From patent US20240270821A1.
